Target: human DLL1 protein (Acro, Cat. No. DL1-H52H8) (human) (UniProt O00548)
Sequence (O00548 18-540 limits assumed): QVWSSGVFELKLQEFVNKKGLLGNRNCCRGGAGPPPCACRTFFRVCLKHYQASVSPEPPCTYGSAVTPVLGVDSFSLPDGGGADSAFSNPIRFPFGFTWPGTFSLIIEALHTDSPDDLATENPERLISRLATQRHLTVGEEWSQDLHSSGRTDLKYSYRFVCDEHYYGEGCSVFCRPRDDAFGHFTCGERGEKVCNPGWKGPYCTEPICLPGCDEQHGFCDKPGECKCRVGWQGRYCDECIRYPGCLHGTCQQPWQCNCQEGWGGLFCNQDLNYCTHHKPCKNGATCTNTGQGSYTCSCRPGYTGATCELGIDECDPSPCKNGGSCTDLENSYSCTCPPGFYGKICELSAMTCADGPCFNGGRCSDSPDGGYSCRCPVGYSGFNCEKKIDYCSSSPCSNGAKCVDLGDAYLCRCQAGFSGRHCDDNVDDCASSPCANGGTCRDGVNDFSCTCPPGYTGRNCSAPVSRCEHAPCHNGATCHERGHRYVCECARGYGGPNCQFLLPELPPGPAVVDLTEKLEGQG
Test: ELISA, coated hDLL1; maximum over 0.1, 1, 10, 100 nM antibody
observable: Emax of OD450 nm binding value (OD450 nm)
The response must be a number in OD450 nm with no trailing unit.

binder: Hab006VL4VH1-hFc (scFv, part only; not given: scFv linker and human IgG1 Fc, V domains shown, not shown: another chain or arm of the molecule; a dimerising Fc or GST; small tags and cut ends) VL: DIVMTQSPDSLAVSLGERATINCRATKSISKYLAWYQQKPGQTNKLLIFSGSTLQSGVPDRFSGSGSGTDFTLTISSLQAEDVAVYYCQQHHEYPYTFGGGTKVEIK VH: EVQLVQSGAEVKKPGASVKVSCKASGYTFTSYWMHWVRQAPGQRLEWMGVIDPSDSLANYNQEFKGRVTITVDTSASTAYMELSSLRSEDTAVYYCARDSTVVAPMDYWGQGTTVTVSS
uom: OD450 nm
Emax of OD450 nm binding value: 0.07

binder: Hab009VL3aVH1-hFc (scFv, part only; not given: VL-VH linker and human IgG1 Fc, V domains shown, not shown: another chain or arm of the molecule; a dimerising Fc or GST; small tags and cut ends) VL: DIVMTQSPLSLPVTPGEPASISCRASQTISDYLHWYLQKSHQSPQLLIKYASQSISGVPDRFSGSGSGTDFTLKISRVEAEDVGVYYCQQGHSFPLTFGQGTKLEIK VH: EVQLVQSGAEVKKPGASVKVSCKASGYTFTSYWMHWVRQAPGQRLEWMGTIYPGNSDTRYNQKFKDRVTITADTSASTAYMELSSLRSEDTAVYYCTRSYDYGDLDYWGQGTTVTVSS
uom: OD450 nm
Emax of OD450 nm binding value: 0.06

Moving on to the next binder.
# input binder: Hab015VL4VH6a-hFc (scFv, part only; not given: scFv linker and human IgG1 Fc, V domains shown, not shown: another chain or arm of the molecule; a dimerising Fc or GST; small tags and cut ends) VL: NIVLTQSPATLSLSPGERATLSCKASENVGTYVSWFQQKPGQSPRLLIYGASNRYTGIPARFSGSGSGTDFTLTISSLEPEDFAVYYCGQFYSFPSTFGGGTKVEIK VH: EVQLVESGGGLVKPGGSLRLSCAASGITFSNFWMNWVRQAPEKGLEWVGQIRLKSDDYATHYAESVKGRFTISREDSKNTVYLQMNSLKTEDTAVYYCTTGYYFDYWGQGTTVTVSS ; wanted: its Emax of OD450 nm binding value
0.49
